target: T1, recombinant mature dimeric myostatin (human and mouse (mature sequences 100% …, UniProt O08689 268-376))
T1 construct: also called GDF-8; mature myostatin
T1 sequence: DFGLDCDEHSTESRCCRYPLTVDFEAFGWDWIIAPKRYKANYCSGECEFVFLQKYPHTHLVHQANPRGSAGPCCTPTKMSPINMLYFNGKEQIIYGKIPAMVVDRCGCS
test-name: ActRIIb neutralisation ELISA: inhibition of 2 nM biotinylated myostatin binding to coated ActRIIb
outcome-measure: pIC50
To interpret pIC50, take it as minus log10 of a concentration measured in moles per litre.

Examples with their reported pIC50 follow.
binder	pIC50
H9L6 (antibody, IgG1, V domains shown, Humanised IgG1/kappa) VH: QVQLVQSGAEVKKPGASVKISCKASGYSFTGYFMHWVRQAPGQGLEWIGNIYPYNSVSNYNQRFKAKATLTVDKSTSTAYMELRSLRSDDTAVYYCARRYYYGTGPADWYYDVWGQGTLVTVSS VL: DIQMTQSPSSLSASVGDRVTITCKASQDINSYLSWFQQKPGKAPKTLIYRANRLVDGVPSKFSGSGSGQDYTLTISSLQPEDFATYYCLQSDEFPLTFGQGTKLEIKR	9.89
H9L4 (antibody, IgG1, V domains shown, Humanised IgG1/kappa) VH: QVQLVQSGAEVKKPGASVKISCKASGYSFTGYFMHWVRQAPGQGLEWIGNIYPYNSVSNYNQRFKAKATLTVDKSTSTAYMELRSLRSDDTAVYYCARRYYYGTGPADWYYDVWGQGTLVTVSS VL: DIQMTQSPSSLSASVGDRVTITCKASQDINSYLSWFQQKPGKAPKSLIYRANRLVDGVPSKFSGSGSGQDYTLTISSLQPEDFATYYCLQSDEFPLTFGQGTKLEIKR	9.85
mouse monoclonal antibody 10B3 (antibody, mouse IgG2a, V domains shown, Murine IgG2a/k; also called 10B3 mouse parental; parental 10B3) VH: EVQLQQSGPELVKPGASVKISCKASGYSFTGYFMHWVKQSHGNILDWIGNIYPYNGVSNYNQRFKAKATLTVDKSSSTAYMELRSLTSEDSAVYYCARRYYYGTGPADWYFDVWGTGTTVTVSS VL: DIKMTQSPSSMYASLRERVTITCKASQDINSYLSWFQQKPGKSPKTLIYRANRLVDGVPSRFSGSGSGQDYSLTISSLEYEDMGIYYCLQCDEFPLTFGAGTKLELK	9.76
H4L6 (antibody, IgG1, V domains shown, Humanised IgG1/kappa) VH: QVQLVQSGAEVKKPGASVKVSCKASGYSFTGYFMHWVRQAPGQGLEWMGNIYPYNGVSNYNQRFKARVTMTVDKSTSTAYMELRSLRSDDTAVYYCARRYYYGTGPADWYYDVWGQGTLVTVSS VL: DIQMTQSPSSLSASVGDRVTITCKASQDINSYLSWFQQKPGKAPKTLIYRANRLVDGVPSKFSGSGSGQDYTLTISSLQPEDFATYYCLQSDEFPLTFGQGTKLEIKR	9.56

Give the reported pIC50 for this binder. H6L6 (antibody, IgG1, V domains shown, Humanised IgG1/kappa) VH: QVQLVQSGAEVKKPGASVKISCKASGYSFTGYFMHWVRQAPGQGLEWIGNIYPYNGVSNYNQRFKAKATLTVDKSTSTAYMELRSLRSDDTAVYYCARRYYYGTGPADWYYDVWGQGTLVTVSS VL: DIQMTQSPSSLSASVGDRVTITCKASQDINSYLSWFQQKPGKAPKTLIYRANRLVDGVPSKFSGSGSGQDYTLTISSLQPEDFATYYCLQSDEFPLTFGQGTKLEIKR
9.49
